The origin of these recorded values is patent US10874686B2.

experimental_protocol: Pharmacokinetics in mice, plasma and lung
Assay type: in vivo
condition_summary: female, mouse, ip, 10 mg/kg intraperitoneal, plasma, read-out: T1/2 plasma
Procedure: Twenty-four female mice were weighed and administered anthranilyl-AMS intraperitoneally at 10 mg/kg dose. […] The plasma and tissue samples were processed using protein precipitation with acetonitrile (ACN) and analyzed with fit for purpose LC-MS/MS method. Pharmacokinetic parameters were calculated using the non-compartmental analysis tool of Phoenix WinNonlin® (Version 6.3).
readout_label: half-life (h)

                            chemical_smiles  reading
0  Nc1ccccc1C(=O)NS(=O)(=O)OC[C@H]1O[C@@H](n2cnc3c(N)ncnc32)[C@H](O)[C@@H]1O     1.06

* * *

experimental_protocol: Pharmacokinetics in mice, plasma and lung
Format: in vivo
condition_summary: female, mouse, ip, 10 mg/kg intraperitoneal, lung, read-out: T1/2 lung
readout_label: half-life

>>> print(df.to_string())
                                   molecule  readout_label  reading
0  Nc1ccccc1C(=O)NS(=O)(=O)OC[C@H]1O[C@@H](n2cnc3c(N)ncnc32)[C@H](O)[C@@H]1O [anthranilyl-AMS, Anthranilyl-AMS]      half-life   2.17 h

* * *

target_or_system: P. aeruginosa PqsA (Pseudomonas aeruginosa, UniProt Q9I4X3)
Sequence (Q9I4X3 whole entry): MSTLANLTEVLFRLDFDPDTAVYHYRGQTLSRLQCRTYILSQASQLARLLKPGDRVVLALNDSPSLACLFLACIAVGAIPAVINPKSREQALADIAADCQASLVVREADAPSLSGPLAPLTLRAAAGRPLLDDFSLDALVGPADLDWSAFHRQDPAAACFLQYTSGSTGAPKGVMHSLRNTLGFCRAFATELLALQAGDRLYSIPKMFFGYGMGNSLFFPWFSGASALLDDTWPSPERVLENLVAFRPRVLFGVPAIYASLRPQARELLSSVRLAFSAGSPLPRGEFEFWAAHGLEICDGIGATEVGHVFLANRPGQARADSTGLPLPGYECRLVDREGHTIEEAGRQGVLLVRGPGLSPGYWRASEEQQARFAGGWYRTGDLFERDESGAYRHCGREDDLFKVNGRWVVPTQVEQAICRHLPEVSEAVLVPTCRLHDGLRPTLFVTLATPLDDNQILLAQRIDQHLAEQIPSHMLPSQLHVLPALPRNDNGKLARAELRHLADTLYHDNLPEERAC
experimental_protocol: PqsA inhibition, spectrophotometric assay with recombinant PqsA (anthranilyl-CoA formation at 365 nm)
Assay type: biochemical
condition_summary: short time scale of the assay
readout_label: PqsA inhibition, potency in words

>>> print(df.to_string())
                                   compound                      readout_label           reading
0  Nc1ccccc1/C=C/S(=O)(=O)NC[C@H]1O[C@@H](n2cnc3c(N)ncnc32)[C@H](O)[C@@H]1O  PqsA inhibition, potency in words  not as effective
1  Nc1ncnc2c1ncn2[C@@H]1O[C@H](CNS(=O)(=O)/C=C/c2ccccc2O)[C@@H](O)[C@H]1O [compound 7, Salicyl-AVSN, reference compound]  PqsA inhibition, potency in words  not as effective
